B1: Retinoic acid receptor RXR-alpha, residues 132 to 208; numbered along this chain, P19793 (parent)
chain: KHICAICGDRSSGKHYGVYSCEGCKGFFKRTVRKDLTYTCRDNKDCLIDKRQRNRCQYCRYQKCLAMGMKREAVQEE

# Variants of: B1
# assayOverview: abundance fitness (aPCA) (normalised: wild type 0, dead -1); higher = more abundant; growth selection in yeast, the domain comes from the species named
# appliedConditions: Homo sapiens

mutationDescriptor	abundance fitness
D49H	-0.011
G8W	-0.1
C21Y	-0.676
I48P	-0.007
D45R	0.001
G13S	-0.121
E22N	-0.079
K50E	-0.077
E22W	-0.007
S20N	0.031
G13P	-0.118
D9T	-0.089
C4N	-0.936
C40H	-0.09
K50W	-0.107
D49Q	0.036
R30L	-0.178
T39E	0.048
T37P	0.064
G17Q	-0.089
D45E	0.043
D49E	-0.005
N43E	0.053
D9C	-0.898
D45W	-0.025
I3Y	-0.058
D49C	-0.117
D9V	-0.424
G8D	-0.04
H15K	-0.138
I6T	-0.064
T31P	-0.641
R33F	-0.033
Y38E	-0.063
R10L	-0.131
A5R	0.044
G23A	-0.082
K14Q	0
D45L	-0.062
K50H	-0.029
C4F	-0.955
S11Q	-0.101
K14F	0.017
S12A	0.044
K1D	-0.02
